- test-method-notes: small-molecule binders of probe aNOTCH3, primary screen, biochemical, small-molecule microarray, 635/667 nm fluorescence (AID 1120);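 further: probe is a biotin-tagged antibody raised against NOTCH3 rather than NOTCH3 protein; score merges spot fluorescence near 667 nm with spot signal to noise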
- measurement-context: higher = more signal
measurement-label: composite z-score
One number for each entry.

Input line: Retrieve composite z-score measured for C=C(/C(=C/C[C@H](OC(=O)c1ccncc1)c1ccccc1OCCO)c1cnc2ccccc2c1)C(C)C and print it.
Output line: 0.145

Batch lookup, composite z-score per entry.
1. CCCCC(=C=CC[C@H](O)c1ccc(OCCO)cc1)C[C@H](O)c1cc(Cl)cc(Cl)c1O
2. COCCOC(=O)N1C(=O)[C@@]2(c3ccccc31)[C@H](c1ccccc1OCCO)N1[C@H](c3ccccc3)[C@H](c3ccccc3)OC(=O)[C@H]1[C@@H]2C(=O)N1CCCCCCC1
3. Cc1ccc([C@H]2C(C(=O)O)=C[C@@H](C(C)(C)C)N2S(=O)(=O)c2ccc(C)cc2)cc1
4. C=CC1c2cc(O)c(OC)cc2CCN1Cc1ccc([N+](=O)[O-])o1 (centres undefined)
5. COc1ccc([Si](C)(C)[C@@H]2[C@@H](CCn3cc([C@H](O)c4ccccc4)nn3)O[C@]3(C(=O)N(c4ccccc4)c4ccccc43)[C@H]2C)cc1
6. [N-]=[N+]=Nc1ccccc1C[C@]1(C(=O)O)N=C(c2ccc(OCCCO)cc2)O[C@H]1c1ccccc1N=[N+]=[N-]
7. Cc1ccccc1C(O)C1C=CC2C(=O)NC(=O)C2N1Nc1ccc(Cl)cc1Cl (centres undefined)

Output line:
1: -0.0178; 2: 2.15; 3: 0.305; 4: 0.136; 5: -0.145; 6: 0.293; 7: -0.0653

Input line: Retrieve composite z-score measured for COC(=O)c1c2oc(c1C(=O)OC)C(=O)N1CCC[C@H]1Cn1nncc1CN(Cc1ccccc1)C(=O)N[C@H](CO)CC2 and print it.
Output line: -0.134

Where do these numbers come from? They come from PubChem BioAssay.
